- assay-target: T1, FLI1 F362A 276-375 (UniProt Q01543 276-375, F362A)
- T1 sequence: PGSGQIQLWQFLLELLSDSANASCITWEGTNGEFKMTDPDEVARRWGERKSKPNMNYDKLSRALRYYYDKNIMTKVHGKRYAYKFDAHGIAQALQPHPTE
- test-details: fluorescence anisotropy
quantity: pKd
For clarity, pKd is expressed as the negative log10 of concentration in mol/L.

Noted for 1site_weak (dsDNA) DNA 1: TTGAAGGAAGAG DNA 2: CTCTTCCTTCAA : its pKd reads 6.86
